system: 786-O; assay: Cell viability (CellTiter-Glo) of 786-O; assay type: cell-based; conditions: Homo sapiens, 786-0, 72 h, 3 days of culture
Task for the reader: assign each of the following molecules its reported pIC50.
One number for each entry, as −log10 of the molar value.

# map each molecule to its pIC50
1. O=C(C[n+]1ccc(NCc2ccccc2)cc1)c1cccc(Cl)c1 [AB24805A]
2. O=C(C[n+]1ccc2[nH]cc(Cc3ccccc3)c2c1)c1ccc(Cl)cc1 [AB24833A]
3. O=C(C[n+]1ccc(NCc2ccccc2)cc1)c1ccc(Br)cc1 [AB24808A]
4. Cc1ccc(C(=O)C[n+]2ccc(NCc3ccccc3)cc2)cc1 [AB24845A]

Ans.
[4.33, 4.34, 4.36, 4.41]

Qu. Which pIC50 is listed for Cc1ccc(C(=O)C[n+]2ccc(NCc3ccccc3)nc2)cc1 ?
Ans. 4.33

This collection of values is drawn from patent US20240124445A1.
